This section lists MIC readings for A. baumannii DH-243.
Response body: numeric value in µg/mL, unit text excluded.

Recorded results for 3 compounds are shown here.
CCOC(=O)c1ccc(N=Nc2c(N)nn3c2N=C(C)CC3=O)cc1 :: 2
CCOC(=O)c1ccc(N=Nc2c(N)nn(C(N)=S)c2N)cc1 :: 2
CCOC(=O)c1ccc(N=Nc2c(N)nn3c(-c4ccc(Cl)cc4)cc(-c4ccccc4)nc23)cc1 :: 8

Please give measured MIC of the following entry: CCOC(=O)c1ccc(N=Nc2c(N)nn3c(-c4cccs4)cc(-c4ccccc4)nc23)cc1
4

Please give measured MIC of the following entry: NCC[C@H](O)C(=O)N[C@@H]1C[C@H](N)[C@@H](O[C@H]2O[C@H](CN)[C@@H](O)[C@H](O)[C@H]2O)[C@H](O)[C@H]1O[C@H]1O[C@H](CO)[C@@H](O)[C@H](N)[C@H]1O [AK, Amikacin, reference compound]
128
